All values here come from patent US20260285872A1.

Listed next: entries and their corresponding pIC50.
# System: MV-4-11 cells
# protocol_text: AML cell viability, CellTiter-Glo, MV-4-11 cells
# Format: cell-based
# experimental_parameters: Homo sapiens, MV4-11; TABLE 2; MV-4-11 cells assumed, CellTiter-Glo, 44 hours; read-out: Cell viability classification
pIC50: −log10 of the molar value.
assay_readout: pIC50

O=C1CCC(N2Cc3cc(C(=O)NC45CCC(F)(CC4)CC5)ccc3C2=O)C(=O)N1 (stereo not shown) [Example 72] | 6.00 to 7.00
O=C1CCC(N2Cc3cc(C(=O)NC45CC(F)(C4)C5)ccc3C2=O)C(=O)N1 (stereo not shown) [Example 71] | < 6.00
O=C1CCC(N2Cc3cc(C(=O)Nc4csc5ccc(F)cc45)ccc3C2=O)C(=O)N1 (stereo not shown) [Example 68] | > 7.00
O=C1CCC(N2Cc3cc(C(=O)Nc4csc5cc(F)ccc45)ccc3C2=O)C(=O)N1 (stereo not shown) [Example 69] | > 7.00
O=C1CCC(N2Cc3cc(C(=O)N4CCc5c(F)ccc(F)c54)ccc3C2=O)C(=O)N1 (stereo not shown) [Example 63] | 6.00 to 7.00
O=C1CCC(N2Cc3cc(C(=O)N4CCc5c4ccc(Cl)c5F)ccc3C2=O)C(=O)N1 (stereo not shown) [Example 66] | > 7.00
COc1cc(F)c2c(c1)CCN2C(=O)c1ccc2c(c1)CN(C1CCC(=O)NC1=O)C2=O (stereo not shown) [Example 64] | > 7.00
O=C1CCC(N2Cc3cc(C(=O)N4CCc5c4ccc(F)c5F)ccc3C2=O)C(=O)N1 (stereo not shown) [Example 65] | > 7.00
O=C1CCC(N2Cc3cc(C(=O)Nc4csc5c(F)cccc45)ccc3C2=O)C(=O)N1 (stereo not shown) [Example 70] | > 7.00
O=C1CCC(N2Cc3cc(C(=O)Nc4csc5cccc(F)c45)ccc3C2=O)C(=O)N1 (stereo not shown) [Example 67] | > 7.00

====

# System: A549 cells
# protocol_text: NSCLC cell viability, CellTiter-Glo, A549 cells
# Format: cell-based
# experimental_parameters: Homo sapiens, 72 hours of treatment, read-out: Cell viability classification
assay_readout: IC50

O=C1CCC(N2Cc3cc(C(=O)Nc4ccccc4)ccc3C2=O)C(=O)N1 (stereo not drawn) | 1000 to 30000 nM
O=C1CCC(N2Cc3cc(C(=O)Nc4ccccc4F)ccc3C2=O)C(=O)N1 (stereo not drawn) | > 1000 nM
O=C1CCC(N2Cc3cc(C(=O)N4CCc5c(F)cc(F)cc54)ccc3C2=O)C(=O)N1 (stereo not drawn) | < 1000 nM
O=C1CCC(N2Cc3cc(C(=O)Nc4cccc5cccnc45)ccc3C2=O)C(=O)N1 (stereo not drawn) | > 1000 nM
O=C1CCC(N2Cc3cc(C(=O)NC4CCCCC4)ccc3C2=O)C(=O)N1 (stereo not drawn) | 1000 to 30000 nM
O=C1CCC(N2Cc3cc(C(=O)Nc4csc5ccccc45)c(F)cc3C2=O)C(=O)N1 (stereo not drawn) | < 1000 nM

====

# study_target: GSPT1 (Homo sapiens, UniProt P15170+Q96SW2)
# Sequence (P15170 whole entry): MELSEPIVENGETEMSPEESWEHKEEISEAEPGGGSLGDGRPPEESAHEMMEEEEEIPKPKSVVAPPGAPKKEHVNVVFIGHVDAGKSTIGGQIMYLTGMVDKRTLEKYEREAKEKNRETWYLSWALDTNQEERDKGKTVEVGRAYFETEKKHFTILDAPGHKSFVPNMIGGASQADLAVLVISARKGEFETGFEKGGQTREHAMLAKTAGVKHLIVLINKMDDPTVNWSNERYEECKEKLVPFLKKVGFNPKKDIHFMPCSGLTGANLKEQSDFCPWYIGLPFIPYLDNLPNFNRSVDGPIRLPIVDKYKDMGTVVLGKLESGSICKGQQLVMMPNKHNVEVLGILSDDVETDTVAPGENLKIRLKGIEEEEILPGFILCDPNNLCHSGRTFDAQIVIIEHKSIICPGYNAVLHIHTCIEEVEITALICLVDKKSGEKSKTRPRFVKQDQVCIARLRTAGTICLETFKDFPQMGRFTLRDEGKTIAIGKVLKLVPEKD
# Sequence (Q96SW2 whole entry): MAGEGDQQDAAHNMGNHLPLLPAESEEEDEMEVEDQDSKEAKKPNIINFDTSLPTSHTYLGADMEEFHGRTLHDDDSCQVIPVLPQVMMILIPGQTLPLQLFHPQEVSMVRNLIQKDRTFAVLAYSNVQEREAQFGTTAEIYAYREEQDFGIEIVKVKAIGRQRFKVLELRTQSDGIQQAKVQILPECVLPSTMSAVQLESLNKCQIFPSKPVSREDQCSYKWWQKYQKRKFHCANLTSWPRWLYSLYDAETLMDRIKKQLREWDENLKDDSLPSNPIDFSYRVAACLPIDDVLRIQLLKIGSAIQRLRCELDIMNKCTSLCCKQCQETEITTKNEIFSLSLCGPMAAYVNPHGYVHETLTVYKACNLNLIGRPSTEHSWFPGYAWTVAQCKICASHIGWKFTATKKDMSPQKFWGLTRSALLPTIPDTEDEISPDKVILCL
# Sequence (Q16531 whole entry partner): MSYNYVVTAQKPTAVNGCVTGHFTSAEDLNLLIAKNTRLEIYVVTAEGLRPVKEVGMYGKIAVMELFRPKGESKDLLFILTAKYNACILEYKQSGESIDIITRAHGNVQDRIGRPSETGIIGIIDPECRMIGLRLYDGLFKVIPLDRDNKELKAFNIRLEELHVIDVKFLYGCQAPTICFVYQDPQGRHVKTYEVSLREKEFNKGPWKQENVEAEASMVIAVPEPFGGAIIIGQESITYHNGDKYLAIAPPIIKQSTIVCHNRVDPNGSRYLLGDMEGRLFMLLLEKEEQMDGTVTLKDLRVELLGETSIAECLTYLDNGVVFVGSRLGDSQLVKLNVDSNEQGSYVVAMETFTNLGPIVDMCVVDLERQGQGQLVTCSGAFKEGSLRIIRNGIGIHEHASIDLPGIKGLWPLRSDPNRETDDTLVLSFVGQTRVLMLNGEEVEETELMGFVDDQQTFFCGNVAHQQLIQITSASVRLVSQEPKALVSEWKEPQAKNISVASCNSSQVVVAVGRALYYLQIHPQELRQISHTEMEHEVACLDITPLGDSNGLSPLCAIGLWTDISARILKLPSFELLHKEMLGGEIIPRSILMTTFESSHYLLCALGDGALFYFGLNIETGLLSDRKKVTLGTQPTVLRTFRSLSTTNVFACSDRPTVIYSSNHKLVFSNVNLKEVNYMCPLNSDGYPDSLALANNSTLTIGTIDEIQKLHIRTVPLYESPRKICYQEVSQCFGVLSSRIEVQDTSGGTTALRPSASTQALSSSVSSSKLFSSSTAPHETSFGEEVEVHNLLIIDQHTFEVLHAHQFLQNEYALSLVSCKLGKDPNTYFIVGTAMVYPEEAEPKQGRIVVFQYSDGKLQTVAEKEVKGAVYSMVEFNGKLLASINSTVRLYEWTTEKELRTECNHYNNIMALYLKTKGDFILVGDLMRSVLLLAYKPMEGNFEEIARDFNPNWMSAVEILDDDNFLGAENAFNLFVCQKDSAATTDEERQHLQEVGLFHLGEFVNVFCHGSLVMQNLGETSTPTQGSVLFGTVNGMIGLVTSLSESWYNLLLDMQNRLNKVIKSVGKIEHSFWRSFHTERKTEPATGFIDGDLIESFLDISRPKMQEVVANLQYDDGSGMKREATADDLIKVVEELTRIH
# protocol_text: cell-based
# experimental_parameters: MV4-11, 6 h, read-out: GSPT1 degradation classification
assay_readout: inhibition at 1 µM

COc1ccc2c(c1)CCN2C(=O)c1ccc2c(c1)CN(C1CCC(=O)NC1=O)C2=O (stereo not shown) | < 50%
O=C1CCC(N2Cc3cc(C(=O)N4CCc5ccc(OC(F)(F)F)cc54)ccc3C2=O)C(=O)N1 (stereo not shown) | < 50%
O=C1CCC(N2Cc3cc(C(=O)N4CCc5c4cccc5C(F)(F)F)ccc3C2=O)C(=O)N1 (stereo not shown) | > 75%
O=C1CCC(N2Cc3cc(C(=O)N4CCc5cc(C(F)(F)F)ccc54)ccc3C2=O)C(=O)N1 (stereo not shown) | 50 to 75%

====

# study_target: GSPT1 (Homo sapiens, UniProt P15170+Q96SW2)
# Assay type: cell-based
# experimental_parameters: DC50, GSPT1_HiBIT_HEK293 cells, 16 hours, Nano-Glo HiBiT Lytic Detection; read-out: GSPT1 degradation classification
Listed next: entries and their corresponding DC50.
assay_readout: DC50

O=C1CCC(c2nc3ccc(C(=O)N4Cc5cc(F)cc(F)c5C4)cc3o2)C(=O)N1 (centres unmarked) | 0.3 to 1 µM
O=C1CCC(c2nc3ccc(C(=O)N4Cc5cccc(Cl)c5C4)cc3o2)C(=O)N1 (centres unmarked) | 0.1 to 0.3 µM
O=C1CCC(N2Cc3cc(C(=O)NC4CC5(C4)CC(c4ccc(F)cc4F)C5)c(F)cc3C2=O)C(=O)N1 (centres unmarked) | < 0.1 µM
N#Cc1cc(F)c2c(c1)CN(C(=O)c1ccc3nc(C4CCC(=O)NC4=O)oc3c1)C2 (centres unmarked) | > 1 µM
O=C1CCC(c2nc3cc(COC(=O)Nc4cc(OC(F)(F)F)ccc4F)ccc3o2)C(=O)N1 (centres unmarked) | 0.1 to 0.3 µM
O=C1CCC(N2Cc3cc(C(=O)N4CC5(CCC(OC(F)(F)F)CC5)C4)ccc3C2=O)C(=O)N1 (centres unmarked) | 0.1 to 0.3 µM
O=C1CCC(c2nc3ccc(C(=O)N4Cc5cccc(F)c5C45CC5)cc3o2)C(=O)N1 (centres unmarked) | > 1 µM
O=C1CCC(c2nc3ccc(C(=O)N4Cc5c(F)ccc(OC(F)(F)F)c5C4)cc3o2)C(=O)N1 (centres unmarked) | > 1 µM

====

# Test system: NCI-H1155 cells
# protocol_text: NSCLC cell viability, CellTiter-Glo, NCI-H1155 cells
# Format: cell-based
# experimental_parameters: Homo sapiens, NCI-H1155, 72 h, read-out: Cell viability classification (NCI-H1155)
pIC50: −log10 of the molar value.
assay_readout: pIC50

O=C1CCC(N2Cc3cc(C(=O)N4CC5(C4)CC(F)(c4cccc(F)c4)C5)ccc3C2=O)C(=O)N1 (centres unmarked) | 6.00 to 7.00
O=C1CCC(N2Cc3cc(C(=O)N4Cc5c(F)ccc(OC(F)(F)F)c5C4)ccc3C2=O)C(=O)N1 (centres unmarked) | 6.00 to 7.00

====

# study_target: GSPT1 (Homo sapiens, UniProt P15170+Q96SW2)
# Format: cell-based
# experimental_parameters: read-out: GSPT1 degradation classification; DC50, GSPT1_HiBIT_HEK293 cells, 16 hours, Nano-Glo HiBiT Lytic Detection
Listed next: entries and their corresponding DC50.
assay_readout: DC50

O=C1CCC(N2Cc3cc(C(=O)N4Cc5cccc(F)c5C45CC5)ccc3C2=O)C(=O)N1 (stereo not shown) | < 100 nM
O=C1CCC(N2Cc3cc(C(=O)N4Cc5c(F)ccc(F)c5C4)ccc3C2=O)C(=O)N1 (stereo not shown) | < 100 nM
O=C1CCC(N2Cc3cc(C(=O)N4Cc5cccc(Cl)c5C4)ccc3C2=O)C(=O)N1 (stereo not shown) | < 100 nM
O=C1CCC(N2Cc3cc(C(=O)N4CCC5(C4)CC(F)(F)C5)ccc3C2=O)C(=O)N1 (stereo not shown) | > 1000 nM
O=C1CCC(N2Cc3cc(C(=O)N4CC5(C=C(c6ccc(F)cc6)C5)C4)ccc3C2=O)C(=O)N1 (stereo not shown) | > 1000 nM
O=C1CCC(N2Cc3cc(C(=O)N4CC5(C=C(c6cccc(F)c6)C5)C4)ccc3C2=O)C(=O)N1 (stereo not shown) | < 100 nM
O=C1CCC(N2Cc3cc(C(=O)N4CC5(C=C(c6ccc(F)cc6F)C5)C4)ccc3C2=O)C(=O)N1 (stereo not shown) | < 100 nM
O=C1CCC(N2Cc3cc(C(=O)N4Cc5ccc(F)c(F)c5C4)ccc3C2=O)C(=O)N1 (stereo not shown) | < 100 nM
O=C1CCC(N2Cc3cc(C(=O)N4CC5(C4)CC(F)(c4ccccc4F)C5)ccc3C2=O)C(=O)N1 (stereo not shown) | 100 to 300 nM
Cc1ccc(C2=CC3(C2)CN(C(=O)c2ccc4c(c2)CN(C2CCC(=O)NC2=O)C4=O)C3)cc1 (stereo not shown) | < 100 nM
O=C1CCC(N2Cc3cc(C(=O)N4CC5(C=C(c6ccc(C(F)(F)F)c(F)c6)C5)C4)ccc3C2=O)C(=O)N1 (stereo not shown) | < 100 nM
O=C1CCC(N2Cc3cc(C(=O)N4Cc5c(Cl)ccc(C(F)(F)F)c5C4)ccc3C2=O)C(=O)N1 (stereo not shown) | 100 to 300 nM
O=C1CCC(N2Cc3cc(C(=O)N4CCC5(CCC(F)(F)C5)C4)ccc3C2=O)C(=O)N1 (stereo not shown) | > 1000 nM
O=C1CCC(N2Cc3cc(C(=O)N4CC5(C=C(c6ccc(C(F)(F)F)cc6F)C5)C4)ccc3C2=O)C(=O)N1 (stereo not shown) | < 100 nM
C[C@@H]1CN(C(=O)c2ccc3c(c2)CN(C2CCC(=O)NC2=O)C3=O)c2cc(F)ccc21 (stereo partly shown) | < 100 nM
O=C1CCC(N2Cc3cc(C(=O)N4Cc5cc(F)cc(F)c5C4)ccc3C2=O)C(=O)N1 (stereo not shown) | < 100 nM
O=C1CCC(N2Cc3cc(C(=O)N4Cc5cc(F)cc(C(F)(F)F)c5C4)ccc3C2=O)C(=O)N1 (stereo not shown) | < 100 nM
O=C1CCC(N2Cc3cc(C(=O)N4Cc5ccc(OC(F)(F)F)c(F)c5C4)ccc3C2=O)C(=O)N1 (stereo not shown) | 100 to 300 nM
O=C1CCC(N2Cc3cc(C(=O)N4CC5(C=C(c6ccccc6F)C5)C4)ccc3C2=O)C(=O)N1 (stereo not shown) | < 100 nM
O=C1CCC(N2Cc3cc(C(=O)N4CC(F)(c5ccccc5F)C4)ccc3C2=O)C(=O)N1 (stereo not shown) | 100 to 300 nM
Cc1cccc2c1CN(C(=O)c1ccc3c(c1)CN(C1CCC(=O)NC1=O)C3=O)C2 (stereo not shown) | < 100 nM
Cc1ccc(C2CC3(CC(NC(=O)c4ccc5c(c4)CN(C4CCC(=O)NC4=O)C5=O)C3)C2)cc1 (stereo not shown) | < 100 nM
